system-tested: T1, monkey C5-mmh (monkey, UniProt P01031 19-1676 (human entry), limits assumed)
T1 construct: Expressed with a C-terminal myc-myc-hexahistidine tag
T1 chain: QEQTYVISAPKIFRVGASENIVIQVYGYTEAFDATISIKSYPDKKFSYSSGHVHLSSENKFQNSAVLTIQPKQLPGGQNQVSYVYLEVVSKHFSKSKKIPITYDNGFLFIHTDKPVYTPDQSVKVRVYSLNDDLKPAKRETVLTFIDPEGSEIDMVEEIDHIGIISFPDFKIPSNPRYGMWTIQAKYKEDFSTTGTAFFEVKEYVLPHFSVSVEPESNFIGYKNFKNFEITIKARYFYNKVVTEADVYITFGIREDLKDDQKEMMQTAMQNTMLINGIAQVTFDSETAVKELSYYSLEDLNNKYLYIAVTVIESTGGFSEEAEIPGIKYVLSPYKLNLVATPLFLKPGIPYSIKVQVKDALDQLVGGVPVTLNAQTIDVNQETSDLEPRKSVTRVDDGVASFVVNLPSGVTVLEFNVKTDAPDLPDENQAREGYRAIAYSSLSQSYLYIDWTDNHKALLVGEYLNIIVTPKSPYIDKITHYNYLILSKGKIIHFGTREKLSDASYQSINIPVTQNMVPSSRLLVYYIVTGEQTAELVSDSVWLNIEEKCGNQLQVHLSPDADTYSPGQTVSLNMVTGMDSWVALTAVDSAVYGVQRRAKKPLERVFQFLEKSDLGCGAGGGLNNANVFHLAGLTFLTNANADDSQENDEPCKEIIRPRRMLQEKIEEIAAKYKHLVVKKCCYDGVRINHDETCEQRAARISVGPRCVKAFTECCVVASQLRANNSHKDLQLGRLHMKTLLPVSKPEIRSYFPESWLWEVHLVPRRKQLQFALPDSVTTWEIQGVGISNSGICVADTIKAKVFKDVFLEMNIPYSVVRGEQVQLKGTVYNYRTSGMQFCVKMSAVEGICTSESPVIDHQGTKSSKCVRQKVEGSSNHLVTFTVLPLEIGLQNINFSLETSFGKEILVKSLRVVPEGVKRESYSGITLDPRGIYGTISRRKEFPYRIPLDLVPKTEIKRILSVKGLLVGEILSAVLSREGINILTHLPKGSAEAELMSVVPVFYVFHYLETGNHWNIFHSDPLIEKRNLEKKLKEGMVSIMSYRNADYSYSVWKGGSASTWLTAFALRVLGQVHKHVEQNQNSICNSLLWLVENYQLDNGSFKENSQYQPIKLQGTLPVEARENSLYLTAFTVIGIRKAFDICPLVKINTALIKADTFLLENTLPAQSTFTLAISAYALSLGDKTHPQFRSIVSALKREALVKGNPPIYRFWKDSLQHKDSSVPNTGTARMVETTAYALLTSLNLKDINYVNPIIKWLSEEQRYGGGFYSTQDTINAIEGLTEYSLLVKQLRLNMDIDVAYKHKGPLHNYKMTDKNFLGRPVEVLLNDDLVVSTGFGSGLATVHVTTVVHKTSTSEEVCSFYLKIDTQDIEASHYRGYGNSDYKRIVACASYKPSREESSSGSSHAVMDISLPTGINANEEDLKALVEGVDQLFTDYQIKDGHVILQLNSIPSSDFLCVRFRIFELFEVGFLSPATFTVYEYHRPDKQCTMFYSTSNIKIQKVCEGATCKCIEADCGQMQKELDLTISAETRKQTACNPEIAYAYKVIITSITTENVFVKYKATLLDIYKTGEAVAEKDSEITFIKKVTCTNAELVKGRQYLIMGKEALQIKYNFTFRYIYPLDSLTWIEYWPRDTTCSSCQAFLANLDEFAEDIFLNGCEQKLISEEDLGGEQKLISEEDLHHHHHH
measurement-protocol: SPR, mAb captured by anti-hFc, 25C
readout-label: t1/2 (h)
One number for each entry, in h.

List t1/2 for every entry below, keeping the order given.
1. H4H12168P (antibody, human IgG4, V domains shown) VH: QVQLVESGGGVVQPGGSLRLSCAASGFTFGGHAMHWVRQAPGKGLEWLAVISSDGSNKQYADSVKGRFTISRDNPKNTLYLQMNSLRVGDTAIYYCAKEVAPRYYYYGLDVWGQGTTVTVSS VL: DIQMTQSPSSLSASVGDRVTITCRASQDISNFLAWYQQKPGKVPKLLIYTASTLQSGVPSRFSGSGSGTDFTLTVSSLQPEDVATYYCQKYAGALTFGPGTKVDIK
2. H4H12159P (antibody, human IgG4, V domains shown) VH: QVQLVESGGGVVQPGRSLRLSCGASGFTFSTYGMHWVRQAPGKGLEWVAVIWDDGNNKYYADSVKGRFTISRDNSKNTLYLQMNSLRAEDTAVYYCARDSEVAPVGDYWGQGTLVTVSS VL: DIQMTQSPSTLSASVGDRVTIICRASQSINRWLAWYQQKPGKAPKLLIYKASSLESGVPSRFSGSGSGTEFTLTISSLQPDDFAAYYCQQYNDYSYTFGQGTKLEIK

1. 1.68
2. 4.1
